- measurementNotes: Quantitative High-Throughput drug screen in 47 multiple myeloma cell lines against the NCATS MIPE library collection: ARD_JJKsccE7 cell viability assay (AID 1918929;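 for viability: 100% = DMSO-only wells and 0% = media-only wells without cells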)
- conditionParameters: ARD myeloma cell line viability, CellTiter-Glo, 48 h; series mostly up to 45.8 µM
Results filed as inconclusive are left out. The source made the active and inactive calls. Calls come from the whole dose curve; as a rule, active = well fitted cell-killing curve with a large enough effect; inconclusive = small, poorly fitted or top-dose-only effect, or effect the other way; inactive = no such curve, though single readings can be large or run the other way.
Pick from 1 (yes) (active), 0 (no) (inactive) when you respond.

Q: Hi team, can someone confirm the assay call for "CCCC(CCC)C(=O)O" ?
A: 0 (no)

Q: Hi team, can someone confirm the assay call for Oc1ccc(C2CNCCc3c2cc(O)c(O)c3Cl)cc1 (configuration not stated) ?
A: 0 (no)

Q: Hi team, can someone confirm the assay call for "COc1ccc(-c2oc3cc(OC)ccc3c2C(=O)c2ccc(C#N)cc2)cc1" ?
A: 1 (yes)

Q: Hi team, can someone confirm the assay call for "CC1(C)Cc2c(-c3ccccc3)c(-c3ccc(Cl)cc3)c(CC(=O)O)n2C1" ?
A: 0 (no)

Q: Hi team, can someone confirm the assay call for CC(c1cc2ccccc2s1)N(O)C(N)=O (configuration not stated) ?
A: 0 (no)

Q: Hi team, can someone confirm the assay call for "CCCc1nn(C)c2c(=O)[nH]c(-c3cc(S(=O)(=O)N4CCN(C)CC4)ccc3OCC)nc12" ?
A: 0 (no)

Q: Hi team, can someone confirm the assay call for "COCC(=O)NCC=Cc1ccc2ncnc(Nc3ccc(Oc4ccc(C)nc4)c(C)c3)c2c1" ?
A: 1 (yes)

Q: Hi team, can someone confirm the assay call for "O=C(O)[C@@H](c1ccc(OCc2ccc3ccccc3n2)cc1)C1CCCC1" ?
A: 0 (no)

Q: Hi team, can someone confirm the assay call for "CCCn1c(=O)c2[nH]c(C34CC5CC3C[C@@H](C5)C4)nc2n(CCC)c1=O" ?
A: 0 (no)

Q: Hi team, can someone confirm the assay call for O=C(O)COCCN1CCN(C(c2ccccc2)c2ccc(Cl)cc2)CC1 (configuration not stated) ?
A: 0 (no)

Q: Hi team, can someone confirm the assay call for "CC(C)(Sc1ccc(CCN(CCCCC2CCCCC2)C(=O)NC2CCCCC2)cc1)C(=O)O" ?
A: 0 (no)

Q: Hi team, can someone confirm the assay call for OC(CN1CCC(Cc2ccc(F)cc2)CC1)c1ccc(Cl)cc1 (configuration not stated) ?
A: 0 (no)

Q: Hi team, can someone confirm the assay call for "N[C@@H]1CONC1=O" ?
A: 0 (no)

Q: Hi team, can someone confirm the assay call for "CNC[C@H](O)c1cccc(O)c1" ?
A: 0 (no)

Q: Hi team, can someone confirm the assay call for "CC(C=CC1=C(C)CCCC1(C)C)=CC=CC(C)=CC(=O)O" ?
A: 1 (yes)

Q: Hi team, can someone confirm the assay call for "Nc1nc2[nH]cc(CCc3ccc(C(=O)N[C@@H](CCC(=O)O)C(=O)O)cc3)c2c(=O)[nH]1" ?
A: 1 (yes)

Q: Hi team, can someone confirm the assay call for "N=c1nc(N2CCCCC2)cc(N)n1O" ?
A: 0 (no)

Q: Hi team, can someone confirm the assay call for "CCn1c(-c2nonc2N)nc2c(C#CC(C)(C)O)ncc(OC[C@H]3CCCNC3)c21" ?
A: 1 (yes)
